Recorded values, source PubChem BioAssay (NCI).

Please go through the items and note down their growth.
System: CCRF-CEM leukemia
Test: NCI-60 one-dose screen, 48 h (100 = growth as untreated, 0 = no growth, -100 = all killed)
Conditions: 10 µM unless noted
Description: Growth inhibition of the CCRF-CEM human tumor cell line is measured as a screen for anti-cancer activity. Cells are grown in 96 well plates and exposed to the test compound for 48 hours. Compounds are tested at a single concentration, which is 10^-5 M for most compounds. The reported endpoint is percent growth (GI% or GIPRCNT), where numbers from 0 - 100% represent growth inhibition, and numbers from -100% - 0 represent cell death. For example, a value of 40 represents 60% growth inhibition. […]
This is part of a sample that, as a whole, favours compounds with a hit. Of some 83,000 tested, about 20% had one in any assay.
One number for each entry, in %.

molecule="CC1=C(C(=O)OCc2ccccc2)C(c2ccc(N(C)C)cc2)n2c(nc3ccccc32)N1 (stereo unspecified)" system_tested="CCRF-CEM leukemia" meas_value=105
molecule="Cc1ccc(C(C(=O)NC2CCCCC2)N(Cc2ccccc2Cl)C(=O)c2ccc(CN3CCOCC3)o2)o1 (stereo unspecified)" system_tested="CCRF-CEM leukemia" meas_value=86.8

Field: growth. Fill in for each record below.
1. Oc1cncc(-c2ccc3ncnc(N4CCc5cc(F)c(Cl)cc54)c3c2)c1
2. CC[C@]12C=CCN3CC[C@@]4(c5ccc(OC)cc5N(C)[C@H]4[C@@](O)(C(=O)OC)[C@@H]1OC(=O)CCCC[P+](c1ccc(F)cc1)(c1ccc(F)cc1)c1ccc(F)cc1)[C@@H]32
3. CCN1CCN(Cc2ccc(C(=O)Nc3cccc(Nc4ccc5c(OC)cccc5n4)c3)cc2C(F)(F)F)CC1

[76.2, 19.9, -30.5]

Consider the following items and state reported growth for each.
1. COc1cc(/C=C/C(=O)c2cnn(-c3cc(=O)[nH]c4ccccc34)c2C)cc(OC)c1OC
2. C[C@H](NC(=O)c1ccc2c(-c3ccc(C(F)(F)F)cc3)cccc2c1)c1ccccn1

-18.6
38.6

Value sought for every listed molecule: growth.
1. Cc1ccc(C(=O)Nc2ccc(-n3ccnc3)c(C(F)(F)F)c2)cc1C#Cc1cnc2cccnn12
2. COc1cc(-c2ccc3ncnc(N4CCc5ccc(Cl)cc54)c3c2)cnc1Cl
3. C=CCSc1nnc(-c2c(C)nc3sccn23)o1
4. CN(C)c1nc(NCCNS(=O)(=O)c2ccc(C3=Nc4c(N)nc(N)nc4NC(c4ccc(Cl)cc4)C3)cc2)nc(N2CCOCC2)n1 (stereo unspecified)
5. OC1CCC(Cn2c(C(F)(F)F)cc3c(Cl)ncnc32)CC1 (stereo unspecified)
6. Cc1cnc2ccc(Oc3ccccc3-c3ccccc3)nn12
7. FC(F)(F)CN1CCN(CCn2c(C(F)(F)F)cc3c(Cl)ncnc32)CC1

1. 22.9
2. 12.2
3. 90.3
4. 17.3
5. -7.23
6. 103
7. -16.8

// input: 8 molecules below; output: growth for each
1. COc1cncc(-c2ccc3ncnc(N4CCc5ccc(Cl)cc54)c3c2)c1
2. N#Cc1cc(-c2ccnc(Nc3ccc(N4CCN(C5COC5)CC4)cc3)n2)ccc1N1CCCC1
3. O=C(Cc1c(-c2ccccc2[N+](=O)[O-])n(-c2ncnc3c2c(-c2ccccc2)c(-c2ccccc2)n3Cc2ccccc2)[nH]c1=O)c1ccc(Cl)c(Cl)c1
4. O=C(NN1C(=O)/C(=C/C=C/c2ccc([N+](=O)[O-])o2)SC1=S)c1ccc(O)cc1
5. COc1ccc(-c2nc3ccc(-c4nnc(SCC(=O)Nc5ccc(/C(C)=N\O)cc5)o4)cc3[nH]2)cc1
6. N/C(=N\c1nc2ccccc2s1)NC(=O)Nc1ccccc1[N+](=O)[O-]
7. Cc1ccc(-c2cc(C(=O)N=Nc3c(O)[nH]c4ccc(F)cc34)c3ccccc3n2)cc1
8. COc1ccc(N=Nc2c(N)nn3c(N)c(C#N)c(-c4ccc(C)cc4)nc23)cc1

[-1.98, 43.4, 13.2, -24, 55.6, 1.29, 92.4, 8.68]

List reported growth for each of these molecules:
1. COc1cc2cc(C(=O)N3C[C@@H](CCl)c4c3cc(OC(=O)N(CCC(=O)N3CCN(C)CC3)[C@H]3CCSSC3)c3ccccc43)[nH]c2c(OC)c1OC
2. Cc1ccc(C2CC(c3ccc(NC(=S)Nc4ccccc4)cc3)=NN2c2ccc(S(N)(=O)=O)cc2)cc1 (stereo unspecified)
3. Cc1nc(Nc2ccccn2)sc1C1=NNC(c2ccccc2F)C1 (stereo unspecified)
4. COC(=O)c1c(C(=O)OC)c2ccc3c4ccccc4ccc3n2c1C(=O)C(C)Br (stereo unspecified)
5. Cc1ccc(C(=O)Nc2cc(-n3cnc(F)c3)cc(C(F)(F)F)c2)cc1C#Cc1cnc2cccnn12
6. O=C(c1ccc(O)cc1)C1[C@H](c2ccccc2Br)[C@@H](c2ccccc2)NC12C(=O)Nc1ccccc12 (stereo partly specified)

1: 32; 2: 14.5; 3: 19.1; 4: -4.34; 5: 29; 6: 21.3

I have 6 molecules here; please give me growth for each one.
1. Cc1ccc2nc(NC(=O)Nc3cccc(Cl)c3)sc2c1
2. NS(=O)(=O)c1ccc(N2N=C(c3ccc(NC(=O)Nc4ccccc4)cc3)CC2c2ccc(Br)cc2)cc1 (stereo unspecified)
3. Cc1ccc(N=Nc2c(N)nn3c(-c4cc5cc(Br)ccc5oc4=O)ccnc23)cc1
4. Nc1nc2cc(-c3ccc4ncnc(NCc5ccccc5)c4c3)ccc2o1
5. O=C1/C(=C/c2cccc3c2OCO3)Cc2c(F)cc(Br)cc21
6. CCCCCCCCc1ccc(C(=O)Nc2cccc(O)c2)cc1

1. 89.6
2. 0.369
3. 99.8
4. 29.6
5. 103
6. 0.746

List the reported growth of each molecule below.
1. O=C1c2cccc3c(N4CCN(Cc5ccccc5)CC4)ccc(c23)C(=O)N1c1cccc(-c2nn(-c3ccccc3)cc2-c2nc3ccccc3s2)c1
2. N#CC1=C(c2ccco2)Nc2c(c(-c3ccccc3)nn2-c2ccccc2)C12C(=O)Nc1ccc(Br)cc12 (stereo unspecified)

105
35.5

====

For each of the compounds below, state its growth.
Test system: NCI-H23 lung
Experiment: NCI-60 one-dose screen, 48 h (100 = growth as untreated, 0 = no growth, -100 = all killed)
Details: 10 µM unless noted
Compounds without any hit were thinned out: in the full panel of roughly 83,000, 20% have a hit.
Answers are plain numbers, in %.

As a guide, the following entries are already answered.
compound=Nc1ccc(-c2ccc3ncnc(N4CCc5cc(F)c(Cl)cc54)c3c2)cn1 measurement_unit=% meas_value=29.4
compound=Cc1cc(Cl)ccc1NC(=O)Nc1ccc(-c2ccc3c(c2)NC(=O)/C3=C\c2ccc[nH]2)cc1 measurement_unit=% meas_value=74.4
compound=COC(=O)c1cc(C(=O)C(F)(F)F)n2c3ccccc3c3ccccc3c12 measurement_unit=% meas_value=83.6
compound=Cn1cc(-c2cc(N)n3nc(-c4c[nH]c5ccccc45)cc3n2)c2ccccc21 measurement_unit=% meas_value=-73.4
compound=COc1ccccc1NC(=O)c1ccc(NC(=O)CCl)s1 measurement_unit=% meas_value=-66

For every item below, please supply its growth.
1. NS(=O)(=O)c1ccc(N2N=C(c3ccc(NC(=O)Nc4ccccc4)cc3)CC2c2ccc(Br)cc2)cc1 (centres undefined)
2. Nc1cc2ccccc2c(=O)n1NC(=O)c1ccccc1
3. COc1cc(CNC(=O)C[C@H](C)CCC=C(C)C)ccc1OCc1cn(-c2ccc(Cl)cc2Cl)nn1
4. CN(C)c1nc(NCCNS(=O)(=O)c2ccc(C3=Nc4c(N)nc(N)nc4NC(c4ccc(Cl)cc4)C3)cc2)nc(N2CCOCC2)n1 (centres undefined)

1. -95.2
2. 87.4
3. 56.6
4. 69.2

====

System: SF-268 CNS
Test: NCI-60 one-dose screen, 48 h (100 = growth as untreated, 0 = no growth, -100 = all killed)
Conditions: 10 µM unless noted
The panel holds about 83,000 compounds, 20% with a hit somewhere; the sample as a whole holds those more often.
I'd appreciate it if you could supply growth values for the items below.
Numbers only, in %.

Look at each compound and report its growth.
1. CCCSc1nnc(-c2sc3nc4ccccc4n3c2C)o1
2. COC(=O)c1cc(C(=O)C(Br)Br)n2c1ccc1c3ccccc3ccc12
3. CCc1ccccc1-c1nc(CN[C@@H]2C[C@@H]3C[C@H]([C@H]2C)C3(C)C)c(C)o1

1: 115; 2: 68; 3: 6.04

Below is a list of compounds. For each, state its recorded growth.
1. NC(=Nc1ccc(OCCCCCCCCn2cnnn2)cc1)c1ccccc1
2. COc1ccc(-c2cc(C(=O)N=Nc3c(O)[nH]c4ccc(Cl)cc34)c3ccccc3n2)cc1

1. 38.8
2. 68.8

====

Test system: LOX IMVI melanoma
Assay: NCI-60 one-dose screen, 48 h (100 = growth as untreated, 0 = no growth, -100 = all killed)
Settings: 10 µM unless noted
Description: Growth inhibition of the LOX IMVI human tumor cell line is measured as a screen for anti-cancer activity. Cells are grown in 96 well plates and exposed to the test compound for 48 hours. Compounds are tested at a single concentration, which is 10^-5 M for most compounds. The reported endpoint is percent growth (GI% or GIPRCNT), where numbers from 0 - 100% represent growth inhibition, and numbers from -100% - 0 represent cell death. For example, a value of 40 represents 60% growth inhibition. […]
Compounds without any hit were thinned out: in the full panel of roughly 83,000, 20% have a hit.
RECORDED_ENDPOINT: growth (%)
Answers are plain numbers, in %.

Please review the following examples before continuing.
compound="Oc1ccc(Cl)c(Nc2ncnc3c2cnn3CC(Cl)c2ccc(Br)cc2)c1 (centres undefined)" recorded_endpoint=growth measurement_unit=% meas_value=0.654
compound=COc1ccc(C(=O)C[n+]2cccc3c4ccccc4ccc32)cc1 recorded_endpoint=growth measurement_unit=% meas_value=46.1
compound=Cn1cc(-c2cc3nc(-c4c[nH]c5ccccc45)cc(N)n3n2)c2ccccc21 recorded_endpoint=growth measurement_unit=% meas_value=-77.8
compound=COC(=O)c1cc(C(C)=O)n2c3ccccc3c3ccccc3c12 recorded_endpoint=growth measurement_unit=% meas_value=64.7
compound="O=C1CCC(N2C(=O)c3cccc(NCCCCCC(=O)N4CCN(c5ccc6nc7c(nc6c5C(F)(F)F)C(=O)c5ncccc5C7=O)CC4)c3C2=O)C(=O)N1 (centres undefined)" recorded_endpoint=growth measurement_unit=% meas_value=-85.1
compound=NS(=O)(=O)c1ccc(Nc2nc(SCC(=O)c3ccc(F)cc3)nc3ccccc23)cc1 recorded_endpoint=growth measurement_unit=% meas_value=20.7
compound=COc1ccc(S(=O)(=O)Nc2ccc(-c3ccc4c(c3)NC(=O)/C4=C\c3ccc[nH]3)cc2)cc1OC recorded_endpoint=growth measurement_unit=% meas_value=-30.1
compound=Cc1[nH]nc2ccc3nc(-c4cn[nH]c4C(F)(F)F)c4c(c3c12)CCCC4 recorded_endpoint=growth measurement_unit=% meas_value=-39.9

Okay, next one:
Quick check: growth of Cn1cc(-c2cc(N)n3nc(-c4c[nH]c5ccccc45)cc3n2)c2cc(Cl)ccc21 ?
-82.5
